EXPERIMENTAL TARGET: recombinant human PD-L1 (Sino Biological Inc.) (human, UniProt Q9NZQ7 19-239)
Sequence (Q9NZQ7 19-239 limits assumed): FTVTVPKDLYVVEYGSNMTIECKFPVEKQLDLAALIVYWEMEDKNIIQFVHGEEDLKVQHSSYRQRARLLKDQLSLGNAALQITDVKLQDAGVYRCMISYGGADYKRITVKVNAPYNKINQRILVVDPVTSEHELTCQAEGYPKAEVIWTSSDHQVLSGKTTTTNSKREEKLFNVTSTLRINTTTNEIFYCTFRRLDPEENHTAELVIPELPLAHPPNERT
MEASUREMENT NOTES: SPR, Biacore X100
Protocol: This instrument utilizes optical surface plasmon resonance technology to detect the association and dissociation between the molecules coated on the biochip and the molecules to be tested. Association constants and dissociation constants were analyzed and calculated by Biacore X100 evaluation software. […]
QUANTITY KIND: koff

Prompt: Suppose we examine the binder humanized anti-human PD-L1 monoclonal antibody VLS15-VHS12 P3 (antibody, human IgG1, kappa, V domains shown) VH: EVQLVQSGAEVKKPGSSVKVSCKASGFNIEDTYIHWVRQAPGQGLEWMGRIDPANANTKYDPKFQGRVTITADTSTNTAYMELSSLRSEDTAVYYCGRGLGAWFAYWGQGTLVTVSS VL: DIQMTQSPSSLSASVGDRVTITCKASQDVHTAVAWIQQKPGKSPKLLIYSASNRYTGVPSRFSGSGSGTDFTFTISSLQPEDIATYYCQQHYITPLTFGQGTKLEIKR ; what koff value has been reported?
Completion: 0.000528 s⁻¹
